Please go through the items and note down their viability, T/C.
System: 885724-159-R-J1-PDC complex spheroid viability;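 further: spheroids exposed to agents for seven days before readout; percent of vehicle control viability where 100% = DMSO wells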
Measurement notes: Anticancer human tumor 885724-159-R-J1-PDC patient-derived pancreatic adenocarcinoma cell line growth inhibition [GQUAD]
Measurement parameters: second compound 10 µM; first compound 0.1 µM; stronger effect = lower value
Source text: DNA G-quadruplex Stabilizer Agents in Combinations in Complex Spheroids A high-throughput screen of multi-cell type tumor spheroids was designed to identify active combinations of DNA G-quadruplex stabilizer agents and targeted small molecules. […] Compounds. […] If the clinical Cmax for an agent had not been determined, the highest concentration tested was 10 microM. […]
Just the number in %, nothing appended.

q: Would you mind telling me what viability, T/C value was observed for CC(=O)O[C@H]1C(=O)[C@@]2(C)[C@H]([C@H](OC(=O)c3ccccc3)[C@]3(O)C[C@H](OC(=O)[C@H](O)[C@@H](NC(=O)c4ccccc4)c4ccccc4)C(C)=C1C3(C)C)[C@]1(OC(C)=O)CO[C@@H]1C[C@@H]2O + Cc1cnc(CNC(=O)c2c(=O)c3ccc(N4CCCN(C)CC4)nc3n3c2sc2ccccc23)cn1 ?
a: 68.7

q: Also COc1cccc2c1C(=O)c1c(O)c3c(c(O)c1C2=O)CC(O)(C(=O)CO)CC3OC1CC(N)C(O)C(C)O1 (stereo not given) + CN(C)c1ccc(Nc2c3ccc(NC(=O)CCN4CCCC4)cc3nc3cc(NC(=O)CCN4CCCC4)ccc23)cc1 ?
a: 79.7

q: Ok, now C=CC(=O)N1CCN(c2nc(=O)n(-c3c(C)ccnc3C(C)C)c3nc(-c4c(O)cccc4F)c(F)cc23)C(C)C1 (stereo not given) + Cc1[nH]c2ccc(F)cc2c1-c1nc2c3cccnc3c3ncccc3c2[nH]1
a: 70.3

q: Field entry: CC(C)n1c(=O)n(C)c2cnc3cc(F)c(-c4ccc(OCCCN5CCCCC5)nc4)cc3c21 + CN(C)c1ccc(Nc2c3ccc(NC(=O)CCN4CCCC4)cc3nc3cc(NC(=O)CCN4CCCC4)ccc23)cc1
a: 84.5

q: Thanks! And CCCS(=O)(=O)Nc1ccc(F)c(C(=O)c2c[nH]c3ncc(-c4ccc(Cl)cc4)cc23)c1F + Cc1cnc(CNC(=O)c2c(=O)c3ccc(N4CCCN(C)CC4)nc3n3c2sc2ccccc23)cn1 ?
a: 71.2

q: Continue with COc1ccc([C@@H](O)c2cc(-c3ncnc4cc(N5CCOCC5)ccc34)c(F)cc2Cl)nn1 + Cc1cnc(CNC(=O)c2c(=O)c3ccc(N4CCCN(C)CC4)nc3n3c2sc2ccccc23)cn1
a: 77.9

q: Please do the same for CC(C)(O)C1CCC(Nc2ccc3ncc(-c4cccc(C(F)(F)F)c4)n3n2)CC1 (stereo not given) + Cc1cnc(CNC(=O)c2c(=O)c3ccc(N4CCCN(C)CC4)nc3n3c2sc2ccccc23)cn1 as well.
a: 69.4

q: Moving on to the next compound: C=CC(=O)N1CCN(c2nc(=O)n(-c3c(C)ccnc3C(C)C)c3nc(-c4c(O)cccc4F)c(F)cc23)C(C)C1 (stereo not given) + Cc1cnc(CNC(=O)c2c(=O)c3ccc(N4CCCN(C)CC4)nc3n3c2sc2ccccc23)cn1
a: 74

q: Note, next up: CC(C)n1c(=O)n(C)c2cnc3cc(F)c(-c4ccc(OCCCN5CCCCC5)nc4)cc3c21 + Cc1[nH]c2ccc(F)cc2c1-c1nc2c3cccnc3c3ncccc3c2[nH]1
a: 71.6

q: Entry O=C(NO)c1cnc(N2CCN(S(=O)(=O)c3ccc4ccccc4c3)CC2)nc1 + CN(C)c1ccc(Nc2c3ccc(NC(=O)CCN4CCCC4)cc3nc3cc(NC(=O)CCN4CCCC4)ccc23)cc1 please
a: 59
